Entries and their IC50
target: UniProt:P0DTD1; assay: Rapid-Fire MS Biochemical Assay measuring Mpro activity (5 nM Mpro); conditions: Table 1B, Mpro inhibition, 5 μM substrate peptide, 120 min, read-out: Rapid-Fire Assay IC50

{"columns": ["compound", "IC50"],
 "data": [
  ["N#CC1CN([C@H]2CC[C@H](C(F)(F)F)CC2)C(=O)N1c1cncc2ccccc12 (stereo partly shown) [Compound 128]", "< 20 nM"],
  ["CS(=O)(=O)c1ccc2cncc(N3C(=O)N(c4cccc(Cl)c4)CC3C#N)c2c1 (racemic) [Compound 37]", "< 20 nM"],
  ["N#C[C@@H]1CN(c2ccc(Cl)cn2)C(=O)N1c1cncc2ccccc12 (single isomer, unassigned) [Compound 41b]", "200 to 1000 nM"],
  ["N#C[C@H]1CN(c2ccc(C(F)(F)F)cn2)C(=O)N1c1cncc2ccccc12 (single isomer, unassigned) [Compound 97a]", "< 20 nM"]
]}
